All figures here come from PubChem BioAssay (NCI).

- Tested on: KM12 colon
- Assay notes: NCI tumour cell line growth inhibition, 48 h
Measured property: TGI (µM)
Answer format: numeric, µM implied, no suffix.

Reference set, count: 10
molecule=COc1cc2c(cc1Nc1nc(Nc3ccsc3C(N)=O)c3cc[nH]c3n1)N(C(=O)CN(C)C)CCC2(C)C value_observed=2.61
molecule=COC(=O)C1=C(C)NC(C)=C(C(=O)OC)C1/C=C(Cl)/C=C/c1ccccc1 value_observed=39.5
molecule="COc1ccc(/C=c2\\sc3n(c2=O)C(N)=C(C#N)C(c2ccc(OC)cc2)C=3c2nc3ccccc3[nH]2)cc1 (stereo not drawn)" value_observed=31
molecule=CCNC(=O)c1cc2c(-c3cc(C(C)(C)O)ccc3Oc3c(C)cc(F)cc3C)cn(C)c(=O)c2[nH]1 value_observed=15.8
molecule=COc1ccc(C(SCCO)(c2ccccc2)c2ccccc2)cc1 value_observed=37
molecule=C[C@@H](CO)[C@@H]1CCC=C2CC[C@]3(C)[C@H](CC[C@@H]4[C@@]5(C)CCCNC(C)(C)[C@@H]5CC[C@]43C)[C@H]21 value_observed=4.09
molecule=COC(=O)c1ccc(C)cc1/C=C1\Cc2ccc(C)cc2C1=O value_observed=33.8
molecule=CN1CCN(c2ccc3nc(-c4ccc5nc(-c6ccc(OCCC(C)(C)C)cc6)[nH]c5c4)[nH]c3c2)CC1 value_observed=4.2
molecule="CC(=O)OC(CCC1(C)OC1COc1ccc(CCNC(=O)c2ccccc2)cc1)C(C)(C)OC(C)=O (stereo not drawn)" value_observed=33.7
molecule="Clc1ccc(C2SCc3nc4ccccc4n32)cc1Cl (stereo not drawn)" value_observed=27

Sure, the documented TGI for CC1OC(OC2C(O[C@H]3CC[C@@]4(C)C(=CC[C@H]5[C@@H]6C[C@@H]7O[C@]8(CC[C@H](C)CN8)[C@@H](C)[C@@H]7[C@@]6(C)CC[C@@H]54)C3)OC(CO)C(O)C2OC2OC(CO)C(O)C(O)C2O)C(O)C(O)C1O (stereo partly drawn) is 34.9

Sure, the documented TGI for O=C1/C(=C/c2cccc(Br)c2)CSC/C1=C\c1cccc(Br)c1 is 4.43

Sure, the documented TGI for O=C1CCCC/C1=C\c1ccc(Br)cc1 is 5.83

Sure, the documented TGI for COC(=O)C1=C(O)C(C(=O)OC)[C@]2(O)[C@H](C(=O)OC)[C@H]1C[C@@H](c1c(Cl)cccc1Cl)[C@H]2C(=O)OC (stereo partly drawn) is 8.6
